Molecular target: Histone deacetylase 1 (Homo sapiens)
Assay: Inhibition of HDAC1 (unknown origin)
Details: read-out: IC50
OBSERVATION_TYPE: IC50 (nM)
Give the value, in units of nM, as a plain number.

Sample answers from the record:
| STRUCTURE | OBSERVATION_TYPE | UNIT_TAG | OBSERVED_MEASUREMENT |
| --- | --- | --- | --- |
| Nc1ccc(F)cc1NC(=O)CCCCNC(=O)c1cc(Cc2n[nH]c(=O)c3ccccc23)ccc1F | IC50 | nM | 910 |
| Nc1cc(F)ccc1NC(=O)c1ccc(CNC(=O)c2cc(Cc3n[nH]c(=O)c4ccccc34)ccc2F)cc1 | IC50 | nM | 340 |
| Nc1ccccc1NC(=O)[C@H]1CC[C@H](CNC(=O)c2cc(Cc3n[nH]c(=O)c4ccccc34)ccc2F)CC1 | IC50 | nM | 340 |
| Nc1cc(F)ccc1NC(=O)[C@H]1CC[C@H](CNC(=O)c2cc(Cc3n[nH]c(=O)c4ccccc34)ccc2F)CC1 | IC50 | nM | 890 |

Exercise: Using the record for `Nc1cc(F)ccc1NC(=O)CCCCNC(=O)c1cc(Cc2n[nH]c(=O)c3ccccc23)ccc1F` , report its IC50.
Key: 1000

Exercise: Query `Nc1ccc(F)cc1NC(=O)C1CCN(C(=O)c2cc(Cc3n[nH]c(=O)c4ccccc34)ccc2F)CC1` next
Key: 950

Exercise: Now this one: `Nc1cc(F)ccc1NC(=O)C1CCN(C(=O)c2cc(Cc3n[nH]c(=O)c4ccccc34)ccc2F)CC1`
Key: 940

Exercise: Ok, now `Nc1cc(F)ccc1NC(=O)CCCCCNC(=O)c1cc(Cc2n[nH]c(=O)c3ccccc23)ccc1F`
Key: 810

* * *

Biological target: Histone deacetylase 1 (Homo sapiens, UniProt Q13547)
Sequence (Q13547 whole entry): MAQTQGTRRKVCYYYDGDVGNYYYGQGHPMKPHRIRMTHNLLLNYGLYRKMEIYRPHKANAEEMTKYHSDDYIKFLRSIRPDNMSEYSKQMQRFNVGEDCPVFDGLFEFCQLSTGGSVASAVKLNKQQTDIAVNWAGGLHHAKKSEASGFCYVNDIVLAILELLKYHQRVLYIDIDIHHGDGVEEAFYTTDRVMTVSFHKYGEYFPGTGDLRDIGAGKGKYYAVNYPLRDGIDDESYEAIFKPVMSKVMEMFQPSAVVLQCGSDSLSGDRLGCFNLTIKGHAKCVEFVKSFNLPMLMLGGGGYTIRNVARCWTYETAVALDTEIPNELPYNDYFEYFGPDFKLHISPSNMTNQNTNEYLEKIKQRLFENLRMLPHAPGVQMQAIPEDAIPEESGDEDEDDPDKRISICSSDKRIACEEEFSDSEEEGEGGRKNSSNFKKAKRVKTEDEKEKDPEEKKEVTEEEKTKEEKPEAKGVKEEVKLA
Assay: Inhibition of HDAC1 (unknown origin)
Conditions: read-out: IC50
OBSERVATION_TYPE: IC50 (nM)
The reply should contain only the number, in nM.

| STRUCTURE | UNIT_TAG | IC50 |
| --- | --- | --- |
| Nc1ccccc1NC(=O)C1CCN(C(=O)c2cc(Cc3n[nH]c(=O)c4ccccc34)ccc2F)CC1 | nM | 820 |

Exercise: # get_value(readout='IC50', item= `Nc1ccccc1NC(=O)c1ccc(CNC(=O)c2cc(Cc3n[nH]c(=O)c4ccccc34)ccc2F)cc1` )
Key: 140

Exercise: Next: `Nc1ccc(F)cc1NC(=O)CCCCCNC(=O)c1cc(Cc2n[nH]c(=O)c3ccccc23)ccc1F`
Key: 520

Exercise: Lookup `Nc1ccccc1NC(=O)CCCCCNC(=O)c1cc(Cc2n[nH]c(=O)c3ccccc23)ccc1F`
Key: 340

Exercise: Let us now turn to `Nc1ccccc1NC(=O)CCCCNC(=O)c1cc(Cc2n[nH]c(=O)c3ccccc23)ccc1F`
Key: 740

* * *

Target: Poly [ADP-ribose] polymerase 1 (Homo sapiens)
Test: Inhibition of PARP1 (unknown origin)
Conditions: read-out: IC50
pIC50 values, listed per item
When answering, recall that pIC50 equals minus log10 of the concentration in mol/L, and write that number alone.

Solved cases below.
| STRUCTURE | pIC50 |
| --- | --- |
| Nc1ccc(F)cc1NC(=O)C1CCN(C(=O)c2cc(Cc3n[nH]c(=O)c4ccccc34)ccc2F)CC1 | 8.74 |
| Nc1ccccc1NC(=O)CCCCCNC(=O)c1cc(Cc2n[nH]c(=O)c3ccccc23)ccc1F | 8.37 |
| Nc1ccccc1NC(=O)C1CCN(C(=O)c2cc(Cc3n[nH]c(=O)c4ccccc34)ccc2F)CC1 | 8.71 |

Kindly consider the entry below.
Exercise: Using the record for `Nc1cc(F)ccc1NC(=O)C1CCN(C(=O)c2cc(Cc3n[nH]c(=O)c4ccccc34)ccc2F)CC1` , report its pIC50.
Key: 8.59

* * *

System: MCF7
Test: Antiproliferative activity against human MCF7 cells assessed as cell growth inhibition by MTT assay
Assay type: functional
Calls of active or inactive are those of the source. No cut-off for these calls is given here.
OBSERVATION_TYPE: GI50

| MOLECULE | TEST_TARGET | GI50 |
| --- | --- | --- |
| Nc1ccc(F)cc1NC(=O)c1ccc(CNC(=O)/C=C/c2cccnc2)cc1 | MCF7 | 1.43 µM |
| Nc1ccccc1NC(=O)C1CCN(C(=O)c2cc(Cc3n[nH]c(=O)c4ccccc34)ccc2F)CC1 | MCF7 | inactive |
| O=C(c1cc(Cc2n[nH]c(=O)c3ccccc23)ccc1F)N1CCN(C(=O)C2CC2)CC1 [OLAPARIB] | MCF7 | 13.2 µM |
| Nc1ccccc1NC(=O)[C@H]1CC[C@H](CNC(=O)c2cc(Cc3n[nH]c(=O)c4ccccc34)ccc2F)CC1 | MCF7 | 11.1 µM |
| Nc1cc(F)ccc1NC(=O)[C@H]1CC[C@H](CNC(=O)c2cc(Cc3n[nH]c(=O)c4ccccc34)ccc2F)CC1 | MCF7 | inactive |
| Nc1ccc(F)cc1NC(=O)CCCCCNC(=O)c1cc(Cc2n[nH]c(=O)c3ccccc23)ccc1F | MCF7 | inactive |
| Nc1ccc(F)cc1NC(=O)C1CCN(C(=O)c2cc(Cc3n[nH]c(=O)c4ccccc34)ccc2F)CC1 | MCF7 | inactive |
| Nc1cc(F)ccc1NC(=O)c1ccc(CNC(=O)c2cc(Cc3n[nH]c(=O)c4ccccc34)ccc2F)cc1 | MCF7 | 11.5 µM |
| Nc1ccccc1NC(=O)c1ccc(CNC(=O)c2cc(Cc3n[nH]c(=O)c4ccccc34)ccc2F)cc1 | MCF7 | 1.91 µM |
| Nc1cc(F)ccc1NC(=O)CCCCNC(=O)c1cc(Cc2n[nH]c(=O)c3ccccc23)ccc1F | MCF7 | inactive |

Exercise: Can you share its GI50? I mean this molecule: `Nc1ccc(F)cc1NC(=O)CCCCNC(=O)c1cc(Cc2n[nH]c(=O)c3ccccc23)ccc1F`
Key: inactive

Exercise: Same for `Nc1ccccc1NC(=O)CCCCNC(=O)c1cc(Cc2n[nH]c(=O)c3ccccc23)ccc1F`
Key: inactive

* * *

Biological target: Poly [ADP-ribose] polymerase 1 (Homo sapiens)
Test: Inhibition of PARP1 (unknown origin) at 20 nM relative to control
We use 40% as the dividing line for inhibition: on or above the line is t, below is f.

Examples from the recorded data:
| STRUCTURE | CATEGORY_LABEL |
| --- | --- |
| Nc1ccccc1NC(=O)[C@H]1CC[C@H](CNC(=O)c2cc(Cc3n[nH]c(=O)c4ccccc34)ccc2F)CC1 | t |
| Nc1cc(F)ccc1NC(=O)CCCCNC(=O)c1cc(Cc2n[nH]c(=O)c3ccccc23)ccc1F | t |
| Nc1cc(F)ccc1NC(=O)[C@H]1CC[C@H](CNC(=O)c2cc(Cc3n[nH]c(=O)c4ccccc34)ccc2F)CC1 | t |

# ---- query compound ----
Exercise: Answer whether inhibition of `Nc1ccc(F)cc1NC(=O)CCCCCNC(=O)c1cc(Cc2n[nH]c(=O)c3ccccc23)ccc1F` is greater than or equal to 40%.
Key: t

* * *

Test system: MCF7
Assay: Antiproliferative activity against human MCF7 cells assessed as cell growth inhibition by MTT assay
Type: functional
Calls of active or inactive are those of the source. The calls are words filed in the database; no cut-off is given here.
OBSERVATION_TYPE: GI50

| STRUCTURE | OBSERVED_MEASUREMENT |
| --- | --- |
| Nc1cc(F)ccc1NC(=O)CCCCCNC(=O)c1cc(Cc2n[nH]c(=O)c3ccccc23)ccc1F | inactive |
| Nc1cc(F)ccc1NC(=O)C1CCN(C(=O)c2cc(Cc3n[nH]c(=O)c4ccccc34)ccc2F)CC1 | inactive |
| Nc1ccccc1NC(=O)CCCCCNC(=O)c1cc(Cc2n[nH]c(=O)c3ccccc23)ccc1F | inactive |

* * *

Biological target: Poly [ADP-ribose] polymerase 1 (Homo sapiens, UniProt P09874)
Sequence (P09874 whole entry): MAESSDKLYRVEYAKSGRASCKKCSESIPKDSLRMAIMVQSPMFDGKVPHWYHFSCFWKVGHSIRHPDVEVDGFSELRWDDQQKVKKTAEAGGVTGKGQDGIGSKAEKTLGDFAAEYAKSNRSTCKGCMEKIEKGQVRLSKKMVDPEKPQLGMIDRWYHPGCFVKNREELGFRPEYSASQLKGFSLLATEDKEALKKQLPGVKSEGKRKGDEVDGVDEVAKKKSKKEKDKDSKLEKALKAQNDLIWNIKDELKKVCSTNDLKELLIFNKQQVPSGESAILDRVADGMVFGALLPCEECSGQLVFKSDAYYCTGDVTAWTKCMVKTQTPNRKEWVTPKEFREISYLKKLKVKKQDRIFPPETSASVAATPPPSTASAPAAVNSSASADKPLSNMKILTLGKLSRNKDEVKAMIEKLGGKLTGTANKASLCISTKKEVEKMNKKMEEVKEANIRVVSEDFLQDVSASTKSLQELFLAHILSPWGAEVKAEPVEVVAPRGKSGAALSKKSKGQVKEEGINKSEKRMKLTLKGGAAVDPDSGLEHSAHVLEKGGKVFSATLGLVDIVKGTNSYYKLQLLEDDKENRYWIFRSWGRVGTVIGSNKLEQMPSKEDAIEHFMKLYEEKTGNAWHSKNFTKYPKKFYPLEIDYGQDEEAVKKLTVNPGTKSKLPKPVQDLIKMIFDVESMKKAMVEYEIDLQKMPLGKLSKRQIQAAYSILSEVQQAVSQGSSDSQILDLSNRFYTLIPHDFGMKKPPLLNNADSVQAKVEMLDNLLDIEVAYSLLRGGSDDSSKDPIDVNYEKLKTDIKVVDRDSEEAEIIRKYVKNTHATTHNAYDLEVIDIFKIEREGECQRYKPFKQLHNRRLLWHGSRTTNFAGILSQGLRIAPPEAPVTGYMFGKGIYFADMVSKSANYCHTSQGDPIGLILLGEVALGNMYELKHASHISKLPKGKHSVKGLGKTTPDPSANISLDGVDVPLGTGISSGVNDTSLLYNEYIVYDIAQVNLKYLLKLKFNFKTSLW
Assay: Inhibition of PARP1 (unknown origin) at 20 nM relative to control
OBSERVATION_TYPE: inhibition (%)
All answers are understood in %, so give the number only.

| STRUCTURE | OBSERVED_MEASUREMENT |
| --- | --- |
| Nc1ccc(F)cc1NC(=O)CCCCNC(=O)c1cc(Cc2n[nH]c(=O)c3ccccc23)ccc1F | 42.4 |
| Nc1cc(F)ccc1NC(=O)c1ccc(CNC(=O)c2cc(Cc3n[nH]c(=O)c4ccccc34)ccc2F)cc1 | 22.1 |
| Nc1ccccc1NC(=O)c1ccc(CNC(=O)c2cc(Cc3n[nH]c(=O)c4ccccc34)ccc2F)cc1 | 37.4 |

Exercise: Kindly state the measured inhibition obtained for `Nc1cc(F)ccc1NC(=O)CCCCCNC(=O)c1cc(Cc2n[nH]c(=O)c3ccccc23)ccc1F` with Poly [ADP-ribose] polymerase 1 (Homo sapiens, UniProt P09874).
Key: 46.2

Exercise: And the next one, `Nc1ccccc1NC(=O)CCCCNC(=O)c1cc(Cc2n[nH]c(=O)c3ccccc23)ccc1F` ?
Key: 39.4
